// classify: if (logP < 6) 1.0 else 0.0

Field: example entries. Status: answers known.
Inquiry: For Oc1ccc(C=Cc2ccc3c(Cl)cc(Cl)c(O)c3n2)cc1O , is the recorded logP below the cut-off of 6?
Reply text: 1.0

Inquiry: For CCOc1ccccc1C=Cc1ccc2cccc(O)c2n1 , is the recorded logP below the cut-off of 6?
Reply text: 1.0

Inquiry: For Oc1cccc(C=Cc2ccc3cccc(O)c3n2)c1 , is the recorded logP below the cut-off of 6?
Reply text: 1.0

Inquiry: For Oc1ccccc1C=Cc1ccc2ccccc2n1 , is the recorded logP below the cut-off of 6?
Reply text: 1.0

Inquiry: For Oc1ccc(C=Cc2ccc3cccc(O)c3n2)c(O)c1 , is the recorded logP below the cut-off of 6?
Reply text: 1.0

---
Inquiry: For Clc1ccccc1C=Cc1ccc2cccc(Cl)c2n1 , is the recorded logP below the cut-off of 6?
Reply text: 1.0

Inquiry: For Oc1ccccc1C=Cc1ccc2c(Cl)cc(Cl)c(O)c2n1 , is the recorded logP below the cut-off of 6?
Reply text: 1.0

Inquiry: For Oc1c(Cl)cc(Cl)c2ccc(C=Cc3ccc(C=Cc4ccc5c(Cl)cc(Cl)c(O)c5n4)cc3)nc12 , is the recorded logP below the cut-off of 6?
Reply text: 0.0

Inquiry: For Oc1ccc(C=Cc2ccc3c(Cl)cc(Cl)c(O)c3n2)cc1 , is the recorded logP below the cut-off of 6?
Reply text: 1.0

Inquiry: For Oc1cc(O)cc(C=Cc2ccc3c(Cl)cc(Cl)c(O)c3n2)c1 , is the recorded logP below the cut-off of 6?
Reply text: 1.0

Inquiry: For Oc1c(Cl)cc(Cl)c2ccc(C=Cc3ccccc3Cl)nc12 , is the recorded logP below the cut-off of 6?
Reply text: 0.0

Inquiry: For CCOc1ccc(C=Cc2ccc3c(Cl)cc(Cl)c(O)c3n2)cc1 , is the recorded logP below the cut-off of 6?
Reply text: 0.0

====

Measure name: logP

Examples from the recorded data:
logP in this record for CCOc1ccc(C=Cc2ccc3cccc(O)c3n2)cc1 : 4.75

logP in this record for Oc1cccc2ccc(C=Cc3ccccc3Cl)nc12 : 4.99

logP in this record for Oc1ccc(C=Cc2ccc3c(Cl)cc(Cl)c(O)c3n2)c(O)c1 : 5.17

Now, please, on to the next compound.
logP in this record for CCOc1ccccc1C=Cc1ccc2c(Cl)cc(Cl)c(O)c2n1 : 6.28
